target: Chymase (Homo sapiens, UniProt P23946); assay: Substrate activity at recombinant human chymase expressed in Pichia pastoris X-33 cells assessed as Kcat by spectrophotometry analysis; assay type: ADME
Sequence (P23946 whole entry): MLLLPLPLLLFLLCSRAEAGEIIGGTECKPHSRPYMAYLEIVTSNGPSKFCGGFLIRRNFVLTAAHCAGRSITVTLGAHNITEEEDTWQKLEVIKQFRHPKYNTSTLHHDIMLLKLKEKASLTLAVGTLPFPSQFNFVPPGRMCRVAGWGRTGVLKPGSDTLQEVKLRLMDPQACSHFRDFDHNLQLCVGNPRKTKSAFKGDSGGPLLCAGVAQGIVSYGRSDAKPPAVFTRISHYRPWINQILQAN
Square brackets hold non-standard residues; d marks the D form. Peptide text beside a SMILES is read from it. * marks the point of attachment. pNA = O=[N+]([O-])c1ccc(N*)cc1; Nle = CCCC[C@H](N)C(=O)O
property: Kcat (s⁻¹)

Example entries begin here.
{"compound": "C[C@@H](O)[C@H](NC(=O)[C@@H](NC(=O)[C@@H](N)CCCNC(=N)N)[C@@H](C)O)C(=O)N[C@@H](Cc1ccc(O)cc1)C(=O)Nc1ccc([N+](=O)[O-])cc1 (H-RTTY-pNA)", "property": "Kcat", "observedMeasurement": 18}
{"compound": "C[C@@H](O)[C@H](NC(=O)[C@@H](N)Cc1ccccc1)C(=O)N[C@@H](CC(=O)O)C(=O)N[C@@H](Cc1ccc(O)cc1)C(=O)Nc1ccc([N+](=O)[O-])cc1 (H-FTDY-pNA)", "property": "Kcat", "observedMeasurement": 14}

I = CCCC[C@H](N)C(=O)N[C@H](C(=O)N[C@@H](CC(=O)O)C(=O)N[C@@H](Cc1ccc(O)cc1)C(=O)Nc1ccc([N+](=O)[O-])cc1)[C@@H](C)O (H-[Nle]TDY-pNA)
II = C[C@@H](O)[C@H](NC(=O)[C@H](CCC(=O)O)NC(=O)[C@@H](N)CCCNC(=N)N)C(=O)N[C@@H](Cc1ccc(O)cc1)C(=O)Nc1ccc([N+](=O)[O-])cc1 (H-RETY-pNA)
**Query** Could you tell me which of these two has the smaller Kcat figure? First: I Second: II Please identify the chosen entry by its label.
**Result** II
(II: 13 s⁻¹, I: 22 s⁻¹)

* * *

assay: Inhibition of human cationic trypsin using Boc-VPR-MCA as substrate at pH 8 and 298 K measured every 60 secs for 600 secs
Bridge positions count the residues as written; N and C are the ends. Square brackets hold non-standard residues; d marks the D form. Peptide text beside a SMILES is read from it. Phe(4-Cl) = N[C@@H](Cc1ccc(Cl)cc1)C(=O)O; Phe(4-I) = N[C@@H](Cc1ccc(I)cc1)C(=O)O; Phe(4-Me) = Cc1ccc(C[C@H](N)C(=O)O)cc1
property: IC50

**Query** Output measured IC50 for this item: N=C(N)NCCC[C@@H]1NC(=O)CNC(=O)[C@H](CC(=O)O)NC(=O)[C@@H]2CCCN2C(=O)[C@H](Cc2ccccc2)NC(=O)[C@@H]2CSSC[C@H](NC1=O)C(=O)N[C@@H](CCC(N)=O)C(=O)N[C@@H](Cc1ccc(Cl)cc1)C(=O)N[C@@H](CO)C(=O)N[C@@H](CCC(=O)O)C(=O)N1CCC[C@H]1C(=O)N1CCC[C@H]1C(=O)N[C@@H](CCC(=O)O)C(=O)N2 (cyclo(CFPDGRCQ[Phe(4-Cl)]SEPPE); disulfide 1-7)
**Result** > 10 µM

**Query** Output measured IC50 for this item: N=C(N)NCCC[C@@H]1NC(=O)CNC(=O)[C@H](CC(=O)O)NC(=O)[C@@H]2CCCN2C(=O)[C@H](Cc2ccccc2)NC(=O)[C@@H]2CSSC[C@H](NC1=O)C(=O)N[C@@H](CCC(N)=O)C(=O)N[C@@H](Cc1ccc(I)cc1)C(=O)N[C@@H](CO)C(=O)N[C@@H](CCC(=O)O)C(=O)N1CCC[C@H]1C(=O)N1CCC[C@H]1C(=O)N[C@@H](CCC(=O)O)C(=O)N2 (cyclo(CFPDGRCQ[Phe(4-I)]SEPPE); disulfide 1-7)
**Result** > 10 µM

**Query** Output measured IC50 for this item: Cc1ccc(C[C@@H]2NC(=O)[C@H](CCC(N)=O)NC(=O)[C@@H]3CSSC[C@H](NC(=O)[C@H](CCC(=O)O)NC(=O)[C@@H]4CCCN4C(=O)[C@@H]4CCCN4C(=O)[C@H](CCC(=O)O)NC(=O)[C@H](CO)NC2=O)C(=O)N[C@@H](Cc2ccccc2)C(=O)N2CCC[C@H]2C(=O)N[C@@H](CC(=O)O)C(=O)NCC(=O)N[C@@H](CCCNC(=N)N)C(=O)N3)cc1 (cyclo(CFPDGRCQ[Phe(4-Me)]SEPPE); disulfide 1-7)
**Result** > 10 µM
